Target: Spindlin1 (SPIN1_49-262) (Homo sapiens, UniProt Q9Y657)
Construct: SPIN1_49-262 was expressed and purified as described previously; His tag; made in house; host or cells: E. coli BL21
Sequence (Q9Y657 49-262): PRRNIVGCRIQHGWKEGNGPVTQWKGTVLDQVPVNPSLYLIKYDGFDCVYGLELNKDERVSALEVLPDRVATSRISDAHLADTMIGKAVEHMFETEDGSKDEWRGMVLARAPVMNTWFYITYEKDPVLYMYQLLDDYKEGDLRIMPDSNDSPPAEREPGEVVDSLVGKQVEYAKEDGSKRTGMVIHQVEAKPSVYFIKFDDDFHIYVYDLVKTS
Assay: Isothermal titration calorimetry of 15-mer H3K4me3X8 peptides binding to Spindlin1
Settings: ITC, 25.0 °C, 20 mM Tris, 100 mM NaCl pH 8.0; mean ± SD of 3 repeated ITC experiments; SD
Starred links: 1 amine or outer side, 2 acyl side, 3 side chain; linkers in the order of their positions; H or OH if unused. Non-standard residues stand in square brackets, D forms with d. Residues, ends and D or L forms follow the SMILES beside them. X2 = CCN(CC)C(=N)NCCC[C@H](N[*:1])C(=O)[*:2]; X4 = N=C(NCCC[C@H](N[*:1])C(=O)[*:2])N1CCCC1; X5 = CN(C)C(=N)NCCCC[C@H](N[*:1])C(=O)[*:2]; X6 = CCN(C)C(=N)NCCC[C@H](N[*:1])C(=O)[*:2]; X1 = CN(C)C(=N)NCC[C@H](N[*:1])C(=O)[*:2]; Lys(Me3) = C[N+](C)(C)CCCC[C@H](N)C(=O)O
metric: −TΔS° (kcal/mol)
// units = kcal/mol; emit number, no label

// map C[C@H](N)C(=O)N[C@@H](CCCNC(=N)N)C(=O)N[C@H](C(=O)N[C@@H](CCCC[N+](C)(C)C)C(=O)N[C@@H](CCC(N)=O)C(=O)N[C@H](C(=O)N[C@@H](C)C(=O)N[C@@H](CCCNC(=N)N(C)C)C(=O)N[C@@H](CCCCN)C(=O)N[C@@H](CO)C(=O)N[C@H](C(=O)NCC(=O)NCC(=O)N[C@@H](CCCCN)C(=O)N[C@@H](C)C(N)=O)[C@@H](C)O)[C@@H](C)O)[C@@H](C)O [H3K4me3R8me2a] to recorded −TΔS° (system: Spindlin1 (SPIN1_49-262) (Homo sapiens, UniProt Q9Y657))
7.0

// map CCN(CC)C(=N)NCCC[C@H](NC(=O)[C@H](C)NC(=O)[C@@H](NC(=O)[C@H](CCC(N)=O)NC(=O)[C@H](CCCC[N+](C)(C)C)NC(=O)[C@@H](NC(=O)[C@H](CCCNC(=N)N)NC(=O)[C@H](C)N)[C@@H](C)O)[C@@H](C)O)C(=O)N[C@@H](CCCCN)C(=O)N[C@@H](CO)C(=O)N[C@H](C(=O)NCC(=O)NCC(=O)N[C@@H](CCCCN)C(=O)N[C@@H](C)C(N)=O)[C@@H](C)O [H3K4me3R8et2a] (H-ART[Lys(Me3)]QTA[X2]KSTGGKA-NH2) to recorded −TΔS° (system: Spindlin1 (SPIN1_49-262) (Homo sapiens, UniProt Q9Y657))
9.3

// map C[C@H](N)C(=O)N[C@@H](CCCNC(=N)N)C(=O)N[C@H](C(=O)N[C@@H](CCCC[N+](C)(C)C)C(=O)N[C@@H](CCC(N)=O)C(=O)N[C@H](C(=O)N[C@@H](C)C(=O)N[C@@H](CCNC(=N)N(C)C)C(=O)N[C@@H](CCCCN)C(=O)N[C@@H](CO)C(=O)N[C@H](C(=O)NCC(=O)NCC(=O)N[C@@H](CCCCN)C(=O)N[C@@H](C)C(N)=O)[C@@H](C)O)[C@@H](C)O)[C@@H](C)O [H3K4me3nR8me2a] (H-ART[Lys(Me3)]QTA[X1]KSTGGKA-NH2) to recorded −TΔS° (system: Spindlin1 (SPIN1_49-262) (Homo sapiens, UniProt Q9Y657))
6.8

// map CCN(C)C(=N)NCCC[C@H](NC(=O)[C@H](C)NC(=O)[C@@H](NC(=O)[C@H](CCC(N)=O)NC(=O)[C@H](CCCC[N+](C)(C)C)NC(=O)[C@@H](NC(=O)[C@H](CCCNC(=N)N)NC(=O)[C@H](C)N)[C@@H](C)O)[C@@H](C)O)C(=O)N[C@@H](CCCCN)C(=O)N[C@@H](CO)C(=O)N[C@H](C(=O)NCC(=O)NCC(=O)N[C@@H](CCCCN)C(=O)N[C@@H](C)C(N)=O)[C@@H](C)O [H3K4me3R8etme] (H-ART[Lys(Me3)]QTA[X6]KSTGGKA-NH2) to recorded −TΔS° (system: Spindlin1 (SPIN1_49-262) (Homo sapiens, UniProt Q9Y657))
11.2

// map C[C@H](N)C(=O)N[C@@H](CCCNC(=N)N)C(=O)N[C@H](C(=O)N[C@@H](CCCC[N+](C)(C)C)C(=O)N[C@@H](CCC(N)=O)C(=O)N[C@H](C(=O)N[C@@H](C)C(=O)N[C@@H](CCCCNC(=N)N(C)C)C(=O)N[C@@H](CCCCN)C(=O)N[C@@H](CO)C(=O)N[C@H](C(=O)NCC(=O)NCC(=O)N[C@@H](CCCCN)C(=O)N[C@@H](C)C(N)=O)[C@@H](C)O)[C@@H](C)O)[C@@H](C)O [H3K4me3hR8me2a] (H-ART[Lys(Me3)]QTA[X5]KSTGGKA-NH2) to recorded −TΔS° (system: Spindlin1 (SPIN1_49-262) (Homo sapiens, UniProt Q9Y657))
11.0

Next:
// map C[C@H](N)C(=O)N[C@@H](CCCNC(=N)N)C(=O)N[C@H](C(=O)N[C@@H](CCCC[N+](C)(C)C)C(=O)N[C@@H](CCC(N)=O)C(=O)N[C@H](C(=O)N[C@@H](C)C(=O)N[C@@H](CCCNC(=N)N1CCCC1)C(=O)N[C@@H](CCCCN)C(=O)N[C@@H](CO)C(=O)N[C@H](C(=O)NCC(=O)NCC(=O)N[C@@H](CCCCN)C(=O)N[C@@H](C)C(N)=O)[C@@H](C)O)[C@@H](C)O)[C@@H](C)O [H3K4me3R8pyr] (H-ART[Lys(Me3)]QTA[X4]KSTGGKA-NH2) to recorded −TΔS° (system: Spindlin1 (SPIN1_49-262) (Homo sapiens, UniProt Q9Y657))
13.0
